The values you see were collected from ChEMBL document CHEMBL1135204.

# Tested On: Muscarinic acetylcholine receptor M1 (Rattus norvegicus, UniProt P08482)
# Sequence (P08482 whole entry): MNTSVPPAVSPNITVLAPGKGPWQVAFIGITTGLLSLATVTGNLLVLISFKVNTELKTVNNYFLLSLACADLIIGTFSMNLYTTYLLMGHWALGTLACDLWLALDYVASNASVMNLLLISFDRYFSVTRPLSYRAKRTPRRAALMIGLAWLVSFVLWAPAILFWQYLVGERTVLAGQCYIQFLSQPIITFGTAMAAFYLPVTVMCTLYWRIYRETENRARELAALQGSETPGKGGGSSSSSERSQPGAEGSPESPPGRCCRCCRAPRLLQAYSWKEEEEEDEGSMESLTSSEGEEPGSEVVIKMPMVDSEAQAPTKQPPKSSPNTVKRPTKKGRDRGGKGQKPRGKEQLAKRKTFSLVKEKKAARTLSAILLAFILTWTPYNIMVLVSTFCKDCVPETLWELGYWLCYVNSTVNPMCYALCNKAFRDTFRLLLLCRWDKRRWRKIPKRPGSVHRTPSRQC
So I've got a bunch of molecules here, and I need their Ki values.
Express it in nM; write the number only.

Could you please provide reported Ki for `C[C@@H]1OC(=O)[C@H]2C[C@H]3CCCC[C@@H]3[C@@H](/C=C/[C@@H]3CCC[C@@H](C)N3C)[C@@H]12` ? Thanks! 316

Could you please provide reported Ki for C[C@@H]1CCC[C@@H](/C=C/[C@H]2[C@@H]3CCCC[C@H]3C[C@H]3C(=O)O[C@H](C)[C@@H]23)N1C (single isomer, unassigned; ent-1) ? Thanks! 1000

Could you please provide reported Ki for `C[C@H]1OC(=O)[C@@H]2C[C@@H]3CCCC[C@H]3[C@H](/C=C/[C@H]3CCC[C@H](C)N3C)[C@H]12` ? Thanks! 316

Could you please provide reported Ki for C[C@@H]1OC(=O)[C@H]2C[C@H]3CCCC[C@@H]3[C@@H](/C=C/[C@H]3CCC[C@H](C)N3C)[C@@H]12 [HIMBACINE] ? Thanks! 63.1
